- experimental system: Aldehyde dehydrogenase 1A1 (Homo sapiens)
- assay name: qHTS Assay for Inhibitors of Aldehyde Dehydrogenase 1 (ALDH1A1)
- condition summary: Purified ALDH1A1, NADH fluorescence, propionaldehyde substrate; series mostly up to 75.3 µM
Screen size: about 220,000 compounds; about 16,000 (7.3%) were called active. About 25% were inconclusive and are not listed. The call rests on the fitted dose curve; in most records, active means well fitted inhibition curve with a large enough effect (not every such curve was filed as active); inconclusive means small, poorly fitted or top-dose-only effect, or another doubt; inactive means no such curve, though single readings can be large or run the other way. Many of the other results were omitted from the sample, so actives are more common in it than they were.
Parameter call: string, one of T (active), F (inactive)

Hey, what did the test say about "CCOC(=O)c1sc2nc(C)nc(Nc3ccc(OC)c(OC)c3)c2c1C" ? F

Which outcome did this test record for the compound "COc1cc(CNc2ncn[nH]2)ccc1OCc1ccccc1C" ? F

Can you look up the reported call for CC1(C)OC(=O)C(=CNC(CO)C(=O)O)C(=O)O1 (stereo not drawn) for me? F

What did the test return for COC/C=C/C1=CC2=CC(=O)C(C)(OC(=O)CCC(=O)OC)C(=O)C2=CO1 (stereo not drawn) ? F

Origin of values: PubChem BioAssay AID1030
